Biological target: MAGL (Homo sapiens)
Experiment: 2-AG assay: MAGL inhibitory activity by hydrolysis of 2-arachidonoylglycerol to arachidonic acid, followed by mass spectrometry
Type: biochemical
Settings: 15 min preincubation, 30 min reaction at RT, 8 μM 2-arachidonoylglycerol
Decision: IC50 beneath 3 nM gives MET; IC50 meeting or exceeding 3 nM gives NOT MET.

INSERT INTO results (molecule, class_name) VALUES
  ('O=C1NC2(CO1)CN(C(=O)N1CC3(CC(Cc4ccc(Cl)cn4)C3)C1)C2', 'MET'),
  ('O=C1CCC2(CN(C(=O)N3CC4(CC(Cn5ccc(C(F)(F)F)cc5=O)C4)C3)C2)N1', 'MET'),
  ('O=C1NC2(CO1)CN(C(=O)N1CC3(CCC(Oc4cnc(C(F)(F)F)cn4)C3)C1)C2 (stereo not drawn) [Example 71]', 'NOT MET'),
  ('O=C1CCC2(CN(C(=O)N3CC4(CC(Cc5cc(C(F)(F)F)c[nH]c5=O)C4)C3)C2)N1', 'NOT MET'),
  ('O=C1COCC2(CN(C(=O)N3CC4(CC(Cc5ccc(F)cc5C(F)(F)F)C4)C3)C2)N1', 'MET'),
  ('N=[S@@](=O)(c1cccc(CC2CC3(C2)CN(C(=O)N2CC4(CCCC(=O)N4)C2)C3)c1)C(F)(F)F', 'NOT MET'),
  ('CS(=O)(=O)c1ccc(CC2CC3(C2)CN(C(=O)N2CC4(COCC(=O)N4)C2)C3)cc1C(F)(F)F [Example 181]', 'MET'),
  ('O=C1CCC2(CN(C(=O)N3CC4(C3)CN(S(=O)(=O)c3ccc(OC(F)(F)F)cc3)C4)C2)N1', 'NOT MET'),
  ('O=C1CCC2(CN(C(=O)N3CC4(C3)CN(S(=O)(=O)c3cccc(OC(F)(F)F)c3)C4)C2)N1', 'NOT MET'),
  ('Cn1cc(OC2CC3(C2)CN(C(=O)N2CC4(CCC(=O)N4)C2)C3)c(C(F)(F)F)n1', 'NOT MET'),
  ('O=C1NC2(CO1)CN(C(=O)N1CC3(CC(Cc4cnc(C(F)(F)F)nc4)C3)C1)C2', 'MET'),
  ('O=C1CCC2(CN(C(=O)N3CC4(CC(n5cnc(C6CC6)n5)C4)C3)C2)N1', 'NOT MET'),
  ('O=C1COCC2(CN(C(=O)N3CC4(CC[C@H](Cc5cccc(S(=O)(=O)C(F)(F)F)c5)C4)C3)C2)N1', 'NOT MET'),
  ('O=C1CCC2(CN(C(=O)N3CC4(CCN(Cc5cccc(S(=O)(=O)C(F)(F)F)c5)C4)C3)C2)N1', 'NOT MET'),
  ('O=C1CCC2(CN(C(=O)N3CCC4(CC3)CN(Cc3ccc(C(F)(F)F)cc3F)C4)C2)N1', 'NOT MET');

* * *

Biological target: MAGL (Homo sapiens, UniProt Q99685)
Experiment: 2-AG assay: MAGL inhibitory activity by hydrolysis of 2-arachidonoylglycerol to arachidonic acid, followed by mass spectrometry
Format: biochemical
Settings: 15 min preincubation, 30 min reaction at RT, 8 μM 2-arachidonoylglycerol
From the text: Compounds of formula (I) were profiled for MAGL inhibitory activity by determining the enzymatic activity by following the hydrolysis of the natural substrate 2-arachidonoylglycerol (2-AG) resulting in arachidonic acid, which can be followed by mass spectrometry. This assay is hereinafter abbreviated “2-AG assay”. […]
Recorded IC50 for the following molecules
readout_label: IC50 (nM)

INSERT INTO results (molecule, target, readout_label, readout_value) VALUES
  ('N#Cc1cc(C(F)(F)F)ccc1CC1CC2(C1)CN(C(=O)N1CC3(COC(=O)N3)C1)C2', 'MAGL (Homo sapiens, UniProt Q99685)', 'IC50', 0.06),
  ('Cn1cc(C(F)(F)F)c(CC2CC3(C2)CN(C(=O)N2CC4(CCC(=O)N4)C2)C3)n1', 'MAGL (Homo sapiens, UniProt Q99685)', 'IC50', 3.73),
  ('Cn1cc(CC2CC3(C2)CN(C(=O)N2CC4(COCC(=O)N4)C2)C3)c(C(F)(F)F)n1', 'MAGL (Homo sapiens, UniProt Q99685)', 'IC50', 11.8),
  ('CS(=O)(=O)c1ccc(CC2CCC3(C2)CN(C(=O)N2CC4(COCC(=O)N4)C2)C3)cc1 (stereo not shown)', 'MAGL (Homo sapiens, UniProt Q99685)', 'IC50', 98.2);

* * *

Biological target: MAGL (Homo sapiens)
Sequence (Q99685 1-303): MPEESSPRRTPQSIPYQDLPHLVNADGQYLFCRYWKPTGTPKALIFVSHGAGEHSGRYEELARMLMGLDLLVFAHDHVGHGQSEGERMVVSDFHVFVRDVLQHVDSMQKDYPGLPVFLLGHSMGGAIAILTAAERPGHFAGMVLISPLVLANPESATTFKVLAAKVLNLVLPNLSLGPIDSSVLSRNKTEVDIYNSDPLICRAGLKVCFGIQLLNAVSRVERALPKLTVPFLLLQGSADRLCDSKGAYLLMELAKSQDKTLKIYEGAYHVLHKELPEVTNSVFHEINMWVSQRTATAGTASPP
Assay: 2-AG assay: MAGL inhibitory activity by hydrolysis of 2-arachidonoylglycerol to arachidonic acid, followed by mass spectrometry
Format: biochemical
Conditions: 15 min preincubation, 30 min reaction at RT, 8 μM 2-arachidonoylglycerol
Decision: IC50 beneath 10 nM gives t; IC50 meeting or exceeding 10 nM gives f.

INSERT INTO assay_data (molecule, target, class_name) VALUES
  ('O=C1CCC2(CN(C(=O)N3CC4(CC(Cc5cc(C(F)(F)F)n[nH]5)C4)C3)C2)N1', 'MAGL (Homo sapiens)', 't'),
  ('Cn1cc(OC2CC3(C2)CN(C(=O)N2CC4(CCC(=O)N4)C2)C3)cn1', 'MAGL (Homo sapiens)', 'f'),
  ('O=C1NC2(CO1)CN(C(=O)N1CC3(CC(c4ccc(F)cc4)C3)C1)C2', 'MAGL (Homo sapiens)', 't'),
  ('CS(=O)(=O)c1cc(CC2CC3(C2)CN(C(=O)N2CC4(CCC(=O)N4)C2)C3)ccc1C(F)(F)F', 'MAGL (Homo sapiens)', 't'),
  ('O=C1CCC2(CN(C(=O)N3CC4(CC(Cn5nccc5C(F)(F)F)C4)C3)C2)N1', 'MAGL (Homo sapiens)', 't'),
  ('O=C1NC2(CO1)CN(C(=O)N1CC3(C1)CN(c1cnc(C(F)(F)F)cn1)C3)C2', 'MAGL (Homo sapiens)', 'f'),
  ('N=[S@](=O)(c1cccc(CC2CC3(C2)CN(C(=O)N2CC4(COC(=O)N4)C2)C3)c1)C(F)(F)F', 'MAGL (Homo sapiens)', 't'),
  ('O=C1NC2(CO1)CN(C(=O)N1CC3(CCC(Cc4ncc(F)cc4F)C3)C1)C2 (stereo not shown)', 'MAGL (Homo sapiens)', 't'),
  ('O=C1NC2(CO1)CN(C(=O)N1CC3(CCC(Oc4ccc(C(F)(F)F)nn4)CC3)C1)C2', 'MAGL (Homo sapiens)', 't'),
  ('O=C1NC2(CO1)CN(C(=O)N1CC3(C1)CN(c1cncc(F)c1)C3)C2', 'MAGL (Homo sapiens)', 'f'),
  ('O=C1CCCC2(CN(C(=O)N3CC4(CC(Cc5cc(C(F)F)n[nH]5)C4)C3)C2)N1', 'MAGL (Homo sapiens)', 'f'),
  ('N=[S@@](=O)(c1cccc(CC2CC3(C2)CN(C(=O)N2CC4(COC(=O)N4)C2)C3)c1)C(F)(F)F', 'MAGL (Homo sapiens)', 't'),
  ('O=C1CCC2(CN(C(=O)N3CC4(CC(Cc5nc(C(F)(F)F)ns5)C4)C3)C2)N1', 'MAGL (Homo sapiens)', 'f'),
  ('O=C1NC2(CO1)CN(C(=O)N1CC3(CC(Cc4nc(C(F)(F)F)cs4)C3)C1)C2', 'MAGL (Homo sapiens)', 't'),
  ('N#Cc1ccc(OC2CC3(C2)CN(C(=O)N2CC4(CCC(=O)N4)C2)C3)cc1C(F)(F)F', 'MAGL (Homo sapiens)', 'f'),
  ('O=C1NC2(CO1)CN(C(=O)N1CC3(CC(OCC4(C(F)(F)F)CC4)C3)C1)C2', 'MAGL (Homo sapiens)', 't');

* * *

Target: UniProtKB Q99685
Experiment: 2-AG assay: MAGL inhibitory activity by hydrolysis of 2-arachidonoylglycerol to arachidonic acid, followed by mass spectrometry
Format: biochemical
Conditions: 15 min preincubation, 30 min reaction at RT, 8 μM 2-arachidonoylglycerol
pIC50: −log10 of the molar value.
readout_label: pIC50

INSERT INTO assay_data (smiles_entry, target, readout_value) VALUES
  ('N#Cc1cc(CC2CC3(C2)CN(C(=O)N2CC4(CCCC(=O)N4)C2)C3)cnc1C(F)(F)F', 'UniProtKB Q99685', 6.10),
  ('CS(=O)(=O)c1ccc(C2CC3(C2)CN(C(=O)N2CC4(COC(=O)N4)C2)C3)cc1', 'UniProtKB Q99685', 8.34),
  ('O=C1CCC2(CN(C(=O)N3CC4(CC(Oc5ccc(C(F)(F)F)nn5)C4)C3)C2)N1', 'UniProtKB Q99685', 6.57),
  ('O=C1NC2(CO1)CN(C(=O)N1CC3(CCC(Oc4ccnc(C(F)(F)F)n4)CC3)C1)C2', 'UniProtKB Q99685', 8.67),
  ('O=C1NC2(CCO1)CN(C(=O)N1CC3(CC(NS(=O)(=O)c4cccc(C(F)(F)F)c4)C3)C1)C2', 'UniProtKB Q99685', 6.13),
  ('O=C1COCC2(CN(C(=O)N3CC4(CC(Cc5ccc(C(F)(F)F)nn5)C4)C3)C2)N1', 'UniProtKB Q99685', 6.59),
  ('O=C1COCC2(CN(C(=O)N3CC4(CC(Cc5cncc(Cl)c5)C4)C3)C2)N1', 'UniProtKB Q99685', 7.42),
  ('O=C1NC2(CO1)CN(C(=O)N1CC3(CC(c4cnc(C(F)(F)F)cn4)C3)C1)C2', 'UniProtKB Q99685', 8.89),
  ('O=C1NC2(CO1)CN(C(=O)N1CC3(CCC(OCC4(C(F)(F)F)CC4)CC3)C1)C2', 'UniProtKB Q99685', 9.01),
  ('O=C1CCC2(CN(C(=O)N3CC4(CC(Cc5cncc(S(=O)(=O)C(F)(F)F)c5)C4)C3)C2)N1', 'UniProtKB Q99685', 8.01),
  ('N=[S@@](=O)(c1ccc(CC2CC3(C2)CN(C(=O)N2CC4(COC(=O)N4)C2)C3)cc1)C(F)(F)F', 'UniProtKB Q99685', 9.59),
  ('CS(=O)(=O)c1cc(C(F)(F)F)ccc1CC1CC2(C1)CN(C(=O)N1CC3(CCCC(=O)N3)C1)C2', 'UniProtKB Q99685', 7.46),
  ('O=C1CCC2(CN(C(=O)N3CC4(CC(Oc5ncc(F)cc5Cl)C4)C3)C2)N1', 'UniProtKB Q99685', 7.56),
  ('CS(=O)(=O)c1cc(F)ccc1CC1CC2(C1)CN(C(=O)N1CC3(COCC(=O)N3)C1)C2', 'UniProtKB Q99685', 7.63),
  ('N#Cc1cc(CC2CC3(C2)CN(C(=O)N2CC4(COC(=O)N4)C2)C3)cnc1C(F)(F)F', 'UniProtKB Q99685', 9.22);
